SUBJECT_OF_TEST: Biotinylated KRAS G12C protein (Homo sapiens (Human), UniProt P01116, C118S/C51S/C80L/G12C)
Sequence (P01116 other isoform, or with tags, fused parts or gaps, stated change not applied): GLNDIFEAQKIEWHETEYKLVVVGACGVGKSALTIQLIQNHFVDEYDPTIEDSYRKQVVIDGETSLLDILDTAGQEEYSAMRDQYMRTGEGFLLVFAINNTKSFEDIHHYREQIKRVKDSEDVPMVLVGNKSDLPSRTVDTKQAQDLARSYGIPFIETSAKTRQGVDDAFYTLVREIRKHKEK
EXPERIMENT_SUMMARY: SOS-catalyzed nucleotide exchange assay (TR-FRET)
Type: biochemical
PARTICULARS: in vitro apparent potency; preincubation time of 60 minutes prior to addition of SOS
Doc: threshold 2 nM (exclusive). Items with IC50 beneath it return true; others return false.

Solved cases (5 shown):
{"COMPOUND": "C=CC(=O)N1CC(C)N(c2nc(=O)n3c4nc(c(F)cc24)-c2c(F)cc(F)cc2OCC(F)(F)CCc2ccnc(C(C)C)c2-3)CC1C (stereo not drawn)", "ASSIGNED_CATEGORY": "true"}
{"COMPOUND": "C=CC(=O)N1C[C@H](C)N(c2nc(=O)n3c4nc(c(F)cc24)-c2c(F)cccc2OCCCc2ccnc(C(C)C)c2-3)C[C@H]1C", "ASSIGNED_CATEGORY": "true"}
{"COMPOUND": "C=CC(=O)N1CC(C)N(c2nc(=O)n3c4nc(c(F)cc24)-c2c(F)ccc(F)c2OCC(F)(F)CCc2ccnc(C(C)C)c2-3)CC1C (stereo not drawn)", "ASSIGNED_CATEGORY": "false"}
{"COMPOUND": "C=CC(=O)N1CC(C)N(c2nc(=O)n3c4nc(c(F)cc24)-c2c(ccc(F)c2F)OCC(F)(F)CCc2ccnc(C(C)C)c2-3)CC1C (stereo not drawn)", "ASSIGNED_CATEGORY": "false"}
{"COMPOUND": "C=CC(=O)N1C[C@H](C)N(c2nc(=O)n3c4nc(c(F)cc24)-c2c(F)cccc2OCCCCc2ccnc(C(C)C)c2-3)C[C@H]1C", "ASSIGNED_CATEGORY": "false"}

Is it true that IC50 reported for C=CC(=O)N1C[C@H](C)N(c2nc(=O)n3c4nc(c(F)cc24)-c2c(ccc(F)c2F)OCCC(C)c2ccnc(C(C)C)c2-3)C[C@H]1C (single isomer, unassigned) [Example 91] is less than 2 nM?
false

###

SUBJECT_OF_TEST: Biotinylated KRAS G12C protein (Homo sapiens (Human), UniProt P01116, C118S/C51S/C80L/G12C)
EXPERIMENT_SUMMARY: SOS-catalyzed nucleotide exchange assay (TR-FRET)
Assay type: biochemical
PARTICULARS: in vitro apparent potency; preincubation time of 60 minutes prior to addition of SOS
Each entry below lists one item and its recorded IC50 value.
Please reply with the bare figure in nM and do not write the unit itself.

Using the record for C=CC(=O)N1C[C@H](C)N(c2nc(=O)n3c4nc(c(F)cc24)-c2c(F)cccc2OCC(F)(F)COc2ccnc(C(C)C)c2-3)C[C@H]1C (single isomer, unassigned) [Example 13b] , report its IC50.
8530

Using the record for C=CC(=O)N1CCN(c2nc(=O)n3c4nc(c(F)cc24)-c2c(F)cccc2OCCCc2ccnc(C(C)C)c2-3)C(Cc2ccccc2)C1 (centres unmarked) , report its IC50.
25

Using the record for C=CC(=O)N1CCN(c2nc(=O)n3c4nc(c(F)cc24)-c2c(F)cccc2C(=O)NCCCc2ccnc(C(C)C)c2-3)[C@@H](C)C1 (single isomer, unassigned) [Example 19a] , report its IC50.
6.8

Using the record for C=CC(=O)N1CCN(c2nc(=O)n3c4nc(c(F)cc24)-c2cccc4cnn(c24)CCCOc2ccnc(C(C)C)c2-3)[C@@H](C)C1 , report its IC50.
4420

Using the record for C=CC(=O)N1CCN(c2nc(=O)n3c4nc(c(F)cc24)-c2c(F)cccc2OCCCCc2ccnc(C(C)C)c2-3)[C@@H](C)C1 (single isomer, unassigned) , report its IC50.
2.4

Using the record for [2H]C1([2H])Oc2ccnc(C(C)C)c2-n2c(=O)nc(N3C[C@@H](C)N(C(=O)C=C)C[C@@H]3C)c3cc(F)c(nc32)-c2c(F)ccc(F)c2OC1([2H])[2H] , report its IC50.
12

Using the record for C=CC(=O)N1C[C@H](C)N(c2nc(=O)n3c4nc(c(F)cc24)-c2c(ccc(F)c2F)OCCC(C)c2ccnc(C(C)C)c2-3)C[C@H]1C (some centres unmarked) [Example 90] , report its IC50.
1.4

Using the record for C=CC(=O)N1CCN(c2nc(=O)n3c4nc(c(F)cc24)-c2c(F)cccc2OCCCc2ccnc(C(C)C)c2-3)[C@@H](CC)C1 , report its IC50.
11

Using the record for C=CC(=O)N1CC(C)N(c2nc(=O)n3c4nc(c(F)cc24)-c2c(F)cccc2COCCc2ccnc(C(C)C)c2-3)CC1C (centres unmarked) , report its IC50.
237

Using the record for C=CC(=O)N1CCN(c2nc(=O)n3c4nc(c(F)cc24)-c2cccc4cnn(c24)CCCc2ccnc(C(C)C)c2-3)[C@@H](C)C1 (single isomer, unassigned) , report its IC50.
17

Using the record for [2H]C1([2H])Oc2ccc(F)c(F)c2-c2nc3c(cc2F)c(N2C[C@@H](C)N(C(=O)C=C)C[C@@H]2C)nc(=O)n3-c2c(ccnc2C(C)C)OC1([2H])[2H] , report its IC50.
5.7

###

SUBJECT_OF_TEST: Biotinylated KRAS G12C protein (Homo sapiens (Human), UniProt P01116, C118S/C51S/C80L/G12C)
EXPERIMENT_SUMMARY: SOS-catalyzed nucleotide exchange assay (TR-FRET)
Format: biochemical
PARTICULARS: in vitro apparent potency; preincubation time of 60 minutes prior to addition of SOS
Description: The SOS-catalyzed nucleotide exchange assay utilizes a preformed complex of recombinant biotinylated KRAS protein containing G12C/C51S/C80L/C118S mutations (183 amino acids; biotin on K10; leader sequence which is an AviTag; referred to as SEQ ID NO: 1 or “Biotinylated KRAS G12C protein” hereafter), Bodipy-GDP, and Terbium-streptavidin. Compounds are added to this complex and then after incubation for 60 minutes, the mixture is treated with recombinant SOS protein and unlabeled GTP. […]
MEASUREMENT_NAME: IC50
Respond with a number, then the unit of measure.

Please review the following examples before continuing.
{"COMPOUND": "C=CC(=O)N1CCN(c2nc(=O)n3c4nc(c(F)cc24)-c2c(F)cccc2COCCc2ccnc(C(C)C)c2-3)[C@@H](C)C1 [Example 18a]", "IC50": "10 nM"}
{"COMPOUND": "C=CC(=O)N1C[C@H](C)N(c2nc(=O)n3c4nc(c(F)cc24)-c2c(Cl)cccc2OCCOc2ccnc(C(C)C)c2-3)C[C@H]1C", "IC50": "11 nM"}
{"COMPOUND": "C=CC(=O)N1C[C@H](C)N(c2nc(=O)n3c4nc(c(F)cc24)-c2c(F)cccc2OCCOc2ccnc(C(C)C)c2-3)C[C@H]1C (single isomer, unassigned) [Example 15a]", "IC50": "6.5 nM"}

Using the record for C=CC(=O)N1C[C@H](C)N(c2nc(=O)n3c4nc(c(F)cc24)-c2cccc(O)c2OCCCc2ccnc(C(C)C)c2-3)C[C@H]1C , report its IC50.
33 nM

Using the record for C=CC(=O)N1CCN(c2nc(=O)n3c4nc(c(F)cc24)-c2c(F)cccc2CCCOc2ccnc(C(C)C)c2-3)[C@@H](C)C1 (single isomer, unassigned) [Example 20a] , report its IC50.
12 nM

Using the record for C=CC(=O)N1C[C@H](C)N(c2nc(=O)n3c4nc(c(F)cc24)-c2c(F)cccc2OCC(F)(F)CCc2ccnc(C(C)C)c2-3)C[C@H]1C , report its IC50.
1.8 nM

Using the record for C=CC(=O)N1CCN(c2nc(=O)n3c4nc(c(F)cc24)-c2c(F)cccc2CCCOc2ccnc(C(C)C)c2-3)[C@@H](C)C1 (single isomer, unassigned) [Example 20b] , report its IC50.
1380 nM

Using the record for C=CC(=O)N1CCN(c2nc(=O)n3c4nc(c(F)cc24)-c2c(F)cccc2OCCCCc2ccnc(C(C)C)c2-3)[C@H](C)C1 , report its IC50.
6890 nM

###

Each entry below lists one item and its recorded IC50 value.
SUBJECT_OF_TEST: Biotinylated KRAS G12C protein (Homo sapiens (Human), UniProt P01116, C118S/C51S/C80L/G12C)
EXPERIMENT_SUMMARY: SOS-catalyzed nucleotide exchange assay (TR-FRET)
Assay type: biochemical
PARTICULARS: in vitro apparent potency; preincubation time of 60 minutes prior to addition of SOS

Please review the following examples before continuing.
{"MOLECULE": "C=CC(=O)N1C[C@H](C)N(c2nc(=O)n3c4nc(c(F)cc24)-c2c(F)cccc2OCC2(CCc4ccnc(C(C)C)c4-3)CC2)C[C@H]1C", "IC50": "1.5 nM"}
{"MOLECULE": "C=CC(=O)N1CC2CCC1CN2c1nc(=O)n2c3nc(c(F)cc13)-c1c(F)cccc1OCCCc1ccnc(C(C)C)c1-2 (stereo not drawn) [Example 106]", "IC50": "2550 nM"}

Using the record for C=CC(=O)N1C[C@H](C)N(c2nc(=O)n3c4nc(c(F)cc24)-c2c(F)ccc(F)c2OCCOc2ccnc(Cl)c2-3)C[C@H]1C , report its IC50.
461 nM

Using the record for C=CC(=O)N1C[C@H](C)N(c2nc(=O)n3c4nc(c(F)cc24)-c2c(ccc(F)c2F)OCCCc2ccnc(C(C)C)c2-3)C[C@H]1C , report its IC50.
2.4 nM
